# TARGET_ENTITY: LSECtin carbohydrate-recognition domain (CRD) (Homo sapiens, UniProt Q6UXB4)
# Sequence (Q6UXB4 160-293): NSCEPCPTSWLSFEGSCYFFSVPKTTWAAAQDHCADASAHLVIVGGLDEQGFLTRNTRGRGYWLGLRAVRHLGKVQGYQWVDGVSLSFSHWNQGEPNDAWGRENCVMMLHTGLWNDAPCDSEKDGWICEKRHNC
VALUE_TYPE: Ki (µM)
Give the value in µM but do not write µM after it.

Q: Form field - read-out: Ki; system: LSECtin carbohydrate-recognition domain (CRD) (Homo sapiens, UniProt Q6UXB4); submitted item: CC(=O)N[C@H]1[C@H](O[C@@H]2C(O)O[C@H](CO)[C@@H](O)[C@@H]2O)O[C@H](CO)[C@@H](O)[C@@H]1O (stereo partly shown) [GlcNAcβ1-2Man]
A: 3.5
